- assay_notes: Cytotoxicity against human MT4 cells assessed as reduction in cell viability incubated for 5 days by MTT assay
- Type: toxicity, cell-based
- condition_summary: MT4 cells, time 5 day
assay_endpoint: log10 CC50 at 120 h (log10 of the value in µM)
On a log10 scale: recorded CC50 at 120 h, unit µM.

*Q* Which measured log10 CC50 at 120 h value corresponds to COc1ccc(N(C)C(=O)[C@H](Cc2ccccc2)NC(=O)Cn2ccc(NC(=O)c3ccccc3)cc2=O)cc1 ?
*A* 1.94

*Q* Try the compound COc1ccc(N(C)C(=O)[C@H](Cc2ccccc2)NC(=O)Cn2ccc(NC(=O)c3ccc(F)cc3)cc2=O)cc1
*A* 1.54

*Q* Try the compound COc1ccc(N(C)C(=O)[C@H](Cc2cc(F)cc(F)c2)NC(=O)CN(Cc2ccc(C#N)cc2)C(=O)Cc2c[nH]c3ccc(Br)cc23)cc1
*A* 1.94

*Q* Try the compound COc1ccc(N(C)C(=O)[C@H](Cc2ccccc2)NC(=O)Cn2ccc(NC(=O)c3ccc4ccccc4c3)cc2=O)cc1
*A* 1.44

*Q* Try the compound COc1ccc(N(C)C(=O)[C@H](Cc2cc(F)cc(F)c2)NC(=O)CN2CCN(C(=O)Cc3c[nH]c4ccc(O)cc34)CC2=O)cc1
*A* 2.12

*Q* Try the compound COc1ccc(N(C)C(=O)[C@H](Cc2cc(F)cc(F)c2)NC(=O)CN2CCN(C(=O)Cc3c[nH]c4ccc(F)cc34)CC2=O)cc1
*A* 1.21

*Q* Try the compound COc1ccc(N(C)C(=O)[C@H](Cc2cc(F)cc(F)c2)NC(=O)CN(Cc2ccc(C#N)cc2)C(=O)Cc2ccc(B3OC(C)(C)C(C)(C)O3)cc2)cc1
*A* 1.72

*Q* Try the compound COc1ccc(N(C)C(=O)[C@H](Cc2ccccc2)NC(=O)Cn2ccc(NC(=O)c3ccc(Br)cc3)cc2=O)cc1
*A* 1.37

*Q* Try the compound COc1ccc(N(C)C(=O)[C@H](Cc2cc(F)cc(F)c2)NC(=O)CN(Cc2ccccc2)C(=O)Cc2ccc3ccccc3c2)cc1
*A* 2.25

*Q* Try the compound COc1ccc(N(C)C(=O)[C@H](Cc2cc(F)cc(F)c2)NC(=O)CN2CCN(C(=O)Cc3c(C)[nH]c4ccccc34)CC2=O)cc1
*A* 1.89

*Q* Try the compound COc1ccc(-n2c(SCc3ccc(B(O)O)cc3)nnc2[C@H](Cc2ccccc2)NC(=O)Cc2c(C)[nH]c3ccccc23)cc1
*A* 1.32

*Q* Try the compound COc1ccc(-n2c(SCC(F)F)nnc2[C@H](Cc2ccccc2)NC(=O)Cc2c(C)[nH]c3ccccc23)cc1
*A* 1.39

----------
- Tested on: MT4
- assay_notes: Cytotoxicity against human MT4 cells assessed as reduction in cell viability incubated for 5 days by MTT assay
- Format: toxicity, cell-based
- condition_summary: mt4, 120 h, time 5 day
assay_endpoint: CC50

*Q* Return CC50 measured with MT4 given this compound: O=C(CN1CCN(S(=O)(=O)c2ccc([N+](=O)[O-])cc2)CC1)N[C@@H](Cc1cc(F)cc(F)c1)c1nc2ccccc2c(=O)n1-c1ccc(S(=O)(=O)N2CCS(=O)(=O)CC2)cc1
*A* > 139 µM

*Q* Try the compound COc1ccc(-n2c([C@H](Cc3ccccc3)NC(=O)CN3CCN(S(=O)(=O)c4ccc([N+](=O)[O-])cc4)CC3=O)nc3ccccc3c2=O)cc1
*A* > 179 µM
